- SYSTEM_NAME: human GcgR (Homo sapiens)
- Sequence (P47871 26-477): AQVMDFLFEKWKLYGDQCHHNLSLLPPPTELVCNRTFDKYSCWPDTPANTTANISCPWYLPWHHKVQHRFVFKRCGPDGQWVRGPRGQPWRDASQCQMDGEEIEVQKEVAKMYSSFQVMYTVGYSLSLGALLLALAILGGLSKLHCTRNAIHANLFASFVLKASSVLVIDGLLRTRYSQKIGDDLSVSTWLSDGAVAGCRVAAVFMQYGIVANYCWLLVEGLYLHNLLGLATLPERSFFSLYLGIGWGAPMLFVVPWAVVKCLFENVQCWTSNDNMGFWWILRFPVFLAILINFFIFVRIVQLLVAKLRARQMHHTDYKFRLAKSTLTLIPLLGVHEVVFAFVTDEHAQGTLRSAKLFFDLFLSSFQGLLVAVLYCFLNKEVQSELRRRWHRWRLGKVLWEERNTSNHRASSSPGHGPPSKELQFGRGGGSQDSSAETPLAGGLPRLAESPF
- PROCEDURE_TEXT: Functional cAMP activity in the presence of 1% HSA
- Assay type: cell-based
- CONDITION_SUMMARY: read-out: cAMP Rel EC50, hGcgR
Starred links: 1 amine or outer side, 2 acyl side, 3 side chain; linkers in the order of their positions; H or OH if unused. Non-standard residues stand in square brackets, D forms with d. Groups on a side chain read outwards from the residue. *: point of attachment. C18 diacid = O=C(O)CCCCCCCCCCCCCCCCC(=O)*; αMePhe(2-F) = C[C@](N)(Cc1ccccc1F)C(=O)O; γGlu = O=C(O)[C@H](CCC(=O)[*:2])N[*:1]; αMe4Pal = C[C@](N)(Cc1ccncc1)C(=O)O; αMeY = C[C@](N)(Cc1ccc(O)cc1)C(=O)O; 4Pal = N[C@@H](Cc1ccncc1)C(=O)O; αMeL = CC(C)C[C@](C)(N)C(=O)O; αMeS = C[C@](N)(CO)C(=O)O; Orn = NCCC[C@H](N)C(=O)O; AEEA = NCCOCCOCC(=O)O; Aib = CC(C)(N)C(=O)O
MEASURE: pEC50
Quick note: pEC50 means taking -log10 of the concentration in moles per liter.

Completed entries (count: 2):
SUBSTANCE	SYSTEM_NAME	MEASURE	RECORDED_MEASUREMENT
H-Y[Aib]QGTFTSD[4Pal]S[Orn][αMeL]LD[Orn]K([γGlu-γGlu-C18 diacid])AQ[αMe4Pal][Orn]FIEYLLAGGPSSGAPPPSGSEE-NH2 [Example 1004]	human GcgR (Homo sapiens)	pEC50	6.63
H-Y[Aib]QGT[αMePhe(2-F)]TSD[4Pal][αMeS]I[αMeL]LD[Orn]K([AEEA-γGlu-C18 diacid])AQ[αMe4Pal]EFI[dE][αMeY]LVEGGPSSGAPPPEGE-NH2 [Example 1158]	human GcgR (Homo sapiens)	pEC50	6.52

# pEC50 (substance: H-Y[Aib]Q[dA]T[αMePhe(2-F)]TSD[4Pal][αMeS]I[αMeL]LD[Orn]K([γGlu-γGlu-C18 diacid])AQ[Aib]EFI[dE][αMeY]LIEGGPSSGAPPPSGGGE-NH2 [Example 1225] ) is 6.56

The measured values listed here are drawn from patent US20240270821A1.
